- assay_notes: label from the status in PepcDB records
measured_endpoint: protein production

Solved entries:
# construct_sequence, result
records = [
    ("MGHHHHHHENLYFQSHLKIMDVEGGALVDPDHIEEVETSMVIVVDDDDGDVAMVVEEDKHPMRDDPCIEDIMDDEHAPLVAELQSALNNPDDKQASEDPLLED", "failed"),
    ("MDECTVTRHYEGKGRNAGRLGAVGCKNRHGEFRIGSGFKDKDRDNPPKIGTLITYRYRGFTRKGTPKFATFVRVRTDLEHHHHHH", "not failed"),
    ("MGHHHHHHSHADLPQWVSERLLQQINQLTNYEPVIGIMGKTGVGKSSLCNALFAGDISPVSDVAACTREPLRFRLQVGDRYITLMDLPGVGESGARDTEYAALYREQLPRLDLVLWLIKADDRALTVDEHFYHQVIGEVYRHKVLFVISQSDKAEPTSGGGQLSTAQKQNISRKICLLHELFQPVHPVCAVSVRLQWGLKVMAERMIKCLP", "not failed"),
    ("EKAVLIGEKEADITFVTWGSQKGPILDVIEDLKEEGISANLLYLKMFSPFPTEFVKNVLSSANLVIDVESNYTAQAAQMIKLYTGIDIKNKILKYNGRHMTEDEILKSAKEILNKESLMVVLEDGS", "failed"),
]

// next item, protein production requested
Q. State the recorded protein production for this entry: MKLIAAGLTLIFLGFILLFLGVVLQVQTPQTTTSSSPQFAGLVLLGPIPIAFGNVPPSVLSNLIIVGVVFTIIMLIIYLIMFIIGRKTTRAPF
A. failed

----------
- assay_notes: label from the status in PepcDB records

# construct_sequence, protein production
measured = [
    ("GSAEILVPEVYHGPGKRGTGFYNADQKINRDITIEFIKKMGIRNVLDGFGGTGIRGIRISKETDSAVTISEVSPDSYRLIRDNVERNGSQASVINDSFECVLQHGAYEYVDVDPYGSPVPYLDAALMGVKRNGFLGVTATDQSALTGSVPHKTRIRYDALIKNDTFRHEMGIRLLIGYMAKRAASLGRFIDPLISIWHGHYYRVFVRVRKGFEGAGRMMQNLGYVNKHNLLSGIYQDMDEGPVWKGNLQDNAVAEAVLASAGHKAFNPEENRLLFCDLTDIARARHTSLPDIESVIDALSSSGHAASRTMFSPTGIKTDASCDLVESLMMDTLHRRS", "failed"),
    ("MAYDNRAVVRKVLLITLLLNLFVMGLKAFVGYLTGSLSLLADALHSVTDSANNILGLFASSFSSPYPDREHPYGHHKFEAVGALGIAAFLGIACFEILQGAIERILKGGAPVRISPPELWLLLIVLGVNIFVAFYERNEGKRVGSQILIADATHTMSDVWVTISVIFGLIGVWLGYQWLDIVLAFPVALLVFWSGWSVLKENLPWLVDQMAIAPEAIHAIAVAVPGVINCHDIASRGVLGRQIFMEMHLIVDAPDVETAHRITEEVERRLEERFSPVRIIIHVEPPNYESEQISFETGSK", "failed"),
    ("MNLANIVQRGWEALGAGDFDTLVTDYVEKMIFIMPGQADVLKGRQAFRSALDNLGEILPPGFEITGLRQLEGENEIVSIVEWKSDKMIASQLSVLFKFEGDQIYEERWFVDTEQWKSVF", "not failed"),
    ("MNHNYVEVKYPAIFRDEGTYWDVRFPDVPAAQTFGASVQVAADNAANALAIALFEQSLPPASDPQYWRLASTEFVVWITMADVQFGPGADTPEPMN", "not failed"),
]

----------
- assay_notes: label from the status in PepcDB records

# construct_sequence, protein production
data = [
    ("MKELQEKNEQITLLVEMSDIMLACGSQEELSEVMAKYSQRLLQFSSGYLFIMHPSKNYLEKAASWGNPHPHDLTFTPEQCWAIRLGRIHYAGSSRIELMCSHMMFDEQPELSLLCVPLMAQNDIYGLLYLEVGLKFDENQQLLITAFAELTALALANVRLRENLRYQSIR", "failed"),
    ("MARMAVTLTHVMAMHAQILKFIVTALFVVPLFLAPAEAQTSETDLLAQLQTAPESEANRLERELALIWDQSGSAAMDLLLKRGREALEDEDNARAVEHLSALTDHAPEFAEGWHARATALYRAGLYGPALDALHQALLLNPNNFNAIFGLGVMMREFGDLDRAARAFDRVLELHPHHKRAKAAKEQMAVQGLGQTL", "failed"),
]

----------
- assay_notes: label from the status in PepcDB records
measured_endpoint: protein production

Solved entries:
# construct_sequence, protein production
records = [
    ("VQLVRLLEEKIKSLQIEIENLRKELNYYKAEMEKMLSPPLIEAVVLDVLPDGRVLVRSSSGPNLVVNIASHIDQKLIKPGISVALNQRGSTILEVLPQKEDPIVKTMEIIERPN", "not failed"),
    ("MLTFETLCQWHRAWLGNVYSWAGQSRTVDMSKPNIRFASPVQIPKLAEKFEARYLPRFAELPEMTDEELVAFLAEVHVEFILIHPFREGNGRISRLLLDVMAAKAGAEPLDYSLWDEHKDFYFKAIQAGRDGDYQHVERLIRDVLEAQQLEHHHHHH", "failed"),
    ("MPKAINYKANSVVYFSGDFDERVFLLNTGSIALTSIDIETGEQVTDYIKTGEFFGVKSALGNYPREESAMVLTDSIVYSFTSKEFEAFAQTNTRIILQMIKVFSRQLRTIHKQLASLLDSEEEKNPEEGLFNVMNAFYSSQHYKAAGQVGTRYKAIYPNGKYISQVDQIVRSTAEVAGRSFGNAEGHNNDAVLAHHEKPAAVTDGTVHLAYNKAEDLFEKGEFEAAYDQYHAVIEAGAGDEITDNAYIGAGKSLHSQKEYVRCLQLLTGFISQHPKSSKIGDALMYLGMCYMDMERPDKAIAFFDKAAILSGADIIGKIRELQKECSSRLQGA", "failed"),
    ("MEISLLQAFALGIIAFIAGLDMFNGLTHMHRPVVLGPLVGLVLGDLHTGILTGDTLELVWMGLAPLAGAQPPNVIIGTIVGTAFAITTGVKPDVAVGVAVPFAVAVQMGITFLFSVMSGVMSRCDRMAENADTRGIERVNYLALLALGTFYFLCAFLPIYFGAEHAKTIIDVLPQRLIDGLGVAGGIMPAIGFAVLLKIMMKNVYIPYFILGFVAATWLKLPVLAIAAAALAMALIDLLRKSPEPTQPAAQKEEFEDGI", "failed"),
    ("MAYVKERIYESMFIIAPNVPEEERENLVERVKKIIEERVKGKIDKVERMGMRKFAYEIKKFNEGDYTVIYFRCDGQNLQELENFYRVTPEIIRWQTFRRFDLEKKERKAQREKAAAEATESSEGGSED", "not failed"),
]

Q. Quick one: protein production for MPNILYKIDNQYPYFTKNEKKIAQFILNYPHKVVNMTSQEIANQLETSSTSIIRLSKKVTPGGFNELKTRLSKFLPKEVTQYNVELVDNESTISLKNKLHSRSKAAL ?
A. not failed

Q. Entry MALVSADSRIAELLTELHQLIKQTQEERSRSEHNLVNIQKTHERMQTENKISPYYRTKLRGLYTTAKADAEAECNILRKALDKIAEIKSLLEERRIAAKIAGLYNDSEPPRKTMRRGVLMTLLQQSAMTLPLWIGKPGDKPPPLCGAIPASGDYVARPGDKVAARVKAVDGDEQWILAEVVSYSHATNKYEVDDIDEEGKERHTLSRRRVIPLPQWKANPETDPEALFQKEQLVLALYPQTTCFYRALIHAPPQRPQDDYSVLFEDTSYADGYSPPLNVAQRYVVACKEPKKK : reported protein production = ?
A. failed

Q. protein production for MSTDDPRFAGIARLYGIEGLARLRAAHVAIVGIGGVGSWAAEAMARSGVGEISLFDMDDVCVSNSNRQLHALDTTVGRPKVEVMAERIRAINPDCVVHAVSDFVTRDTMAECITPDMDFVIDCIDSVNAKAALISWCKRRKIQMVTTGAAGGQIDPTLIQIADLNRTFNDPLASKVRSTLRRDYGFSRTPNRHYSVPCVFSTEQLRYPKPDGSICLEKKFIGDGVKLDCAGGFGAVMMVTATFGMIAATRAVDKLVAGTRRPSERAKPAAVTANQA ?
A. failed

Q. # lookup: protein production of MAALSGVFVWDEERIQEEELQRSINEMKRLEEMSNIFQSSGVENYPPEPKSPAGGNEKSKDKEEPWEMVMDKKHFKLWRRPITGTHLYQYRVFGTYTDVTPRQFFNVQLDTEYRKKWDALVIKLEVIERDAVSGSEVLHWVTHFPYPMYSRDYVYVRRYSVDQENNVMVLVSRAVEHPSVPESPEFVRVRSYESQMVIRPHKSFDENGFDYLLTYSDNPQTVFPRYCVSWMVSSGMPDFLEKLHMATLKAKNMEIKVKDYISAKPLEMSSEAKATAPSPERKNEGSCGPARIEYA
A. failed

Q. Quick one: protein production for MSEHHHDHSHDHGHAGHQYHAVGSIQIAFFMNFGFTILEAIGGVMTNSTAILANAVHDFGDSIAVGQAWYFEKLSGRTGDKRYSYGYQRFSIFGALVSALMMLASSFLVLVEAVPRLLHPEHPNAKGMVAFALVGVAVNALAMLRLKGQAGMNARVIALHLLEDVLGWLSVLLVSVVLLFTSLPILDPLLAIVITLYILTGVVKNLRAMVPVFLQAVPSELSLDKVVADIQQTEHVTGVHHAHLWSLDGQRTVFTAHLEIGCDVNPAEYASIKEEIRKLVARHGIYHSTVELEYPGEVCRNESHKDG ?
A. failed

Q. Query: protein production; subject: HHIAYTEWGIFEPELPTVICVHGYTRNSRDFDELANYLSSKGRHVFCPDIAGRGDSSWFKNPRYYNFTQYVKDMTVLMARTNAHQIDWIGTSMGGIIGMILAAMPNSPINKLVLNDIGPQIPIHGLRRIAKYAGKAPDFKSLEEAKQHFKASYADFGITNEKQWDIFTKNSVEQRGPNLYVTKMDPAIKKSKSILQIISEFFRHPHKALEGIFYDINLWSIWKQIKCPVIVIHGVNSDILTSEIITQMKKTHALTEVYEVENAGHAPALLDLTVHQRIEDWLATH
A. failed

Q. Report protein production for MSLQESSLVLSNGLGFVDTPYKAGTLEVDDTEDLIINCDEVDCTTFVEYALAMALCPQQGDEMQEGDFARNLQRIRYRDGKIDGYTSRLHYISDWINNAVRQGLLEDVTAAYSPFKQKLSLSYMSTHPELYKSLKNSPENVAQMAKYEKALSGKEVHYLPKDKLEPDGLPWIKNGDIIALTTNTPGLDVSHMGIAIYIKGQLHLLHASSKEGKVVVGKTALSQMLKDRKSLTGIRVLRMKKEGHHHHHH please.
A. not failed

Data origin, for the record: a protein production outcome set (Wang et al. 2014)
